Assay: catalepsy in rats
Type: in vivo, rat
Conditions: rat, in vivo, sc; rats
I'd be grateful if you could share measured ED50 for these entries.
Field format: number, assumed mg/kg, no unit text.

Please give the measured ED50 for this compound: C#CCN(C)C[C@@H]1C=C2c3cccc4[nH]cc(c34)C[C@H]2N(C)C1 0.29

Similarly, O=C(CCCN1CCC(O)(c2ccc(Cl)cc2)CC1)c1ccc(F)cc1 [haloperidole, reference compound] ? 0.019

Here is the next compound: C#CCN(C)C(=O)[C@@H]1C=C2c3cccc4[nH]c(Br)c(c34)C[C@H]2N(C)C1 1.4

---

Kindly supply the reported Ki values for the records listed here.
Target: D2 receptor (Homo sapiens)
Sequence (P14416 whole entry): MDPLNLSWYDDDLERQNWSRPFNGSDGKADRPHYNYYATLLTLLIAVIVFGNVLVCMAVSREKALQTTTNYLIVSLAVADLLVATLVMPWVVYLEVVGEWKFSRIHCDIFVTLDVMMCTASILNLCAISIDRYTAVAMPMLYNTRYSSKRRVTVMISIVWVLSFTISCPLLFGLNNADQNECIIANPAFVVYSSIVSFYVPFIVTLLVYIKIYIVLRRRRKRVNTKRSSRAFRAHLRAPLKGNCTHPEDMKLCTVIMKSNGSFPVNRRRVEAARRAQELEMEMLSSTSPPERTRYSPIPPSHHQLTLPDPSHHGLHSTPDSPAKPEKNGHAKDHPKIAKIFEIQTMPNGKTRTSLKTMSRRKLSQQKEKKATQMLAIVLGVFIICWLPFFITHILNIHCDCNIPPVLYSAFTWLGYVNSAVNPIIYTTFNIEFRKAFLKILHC
Assay: binding, [^3 H]Raclopride
Settings: D2, [^3 H]Raclopride
// note: answer is a bare numeric in nM

Missing value: Ki, D2 receptor (Homo sapiens), entry C#CCN(C)C(=O)[C@@H]1C=C2c3cccc4[nH]c(Br)c(c34)C[C@H]2N(C)C1 . Fill in? 2.3

Now the compound C#CCN(C)C[C@@H]1C=C2c3cccc4[nH]cc(c34)C[C@H]2N(C)C1 3.8

Query C#CCNC(=O)[C@@H]1C=C2c3cccc4[nH]c(Br)c(c34)C[C@H]2N(C)C1 next 44

Do the same for C#CCNC(=O)[C@@H]1C=C2c3cccc4[nH]cc(c34)C[C@H]2N(C)C1 please 151
